# TARGET DESC: Mer (Homo sapiens)
# Construct: purchased Life Technologies
# Sequence (Q12866 21-999): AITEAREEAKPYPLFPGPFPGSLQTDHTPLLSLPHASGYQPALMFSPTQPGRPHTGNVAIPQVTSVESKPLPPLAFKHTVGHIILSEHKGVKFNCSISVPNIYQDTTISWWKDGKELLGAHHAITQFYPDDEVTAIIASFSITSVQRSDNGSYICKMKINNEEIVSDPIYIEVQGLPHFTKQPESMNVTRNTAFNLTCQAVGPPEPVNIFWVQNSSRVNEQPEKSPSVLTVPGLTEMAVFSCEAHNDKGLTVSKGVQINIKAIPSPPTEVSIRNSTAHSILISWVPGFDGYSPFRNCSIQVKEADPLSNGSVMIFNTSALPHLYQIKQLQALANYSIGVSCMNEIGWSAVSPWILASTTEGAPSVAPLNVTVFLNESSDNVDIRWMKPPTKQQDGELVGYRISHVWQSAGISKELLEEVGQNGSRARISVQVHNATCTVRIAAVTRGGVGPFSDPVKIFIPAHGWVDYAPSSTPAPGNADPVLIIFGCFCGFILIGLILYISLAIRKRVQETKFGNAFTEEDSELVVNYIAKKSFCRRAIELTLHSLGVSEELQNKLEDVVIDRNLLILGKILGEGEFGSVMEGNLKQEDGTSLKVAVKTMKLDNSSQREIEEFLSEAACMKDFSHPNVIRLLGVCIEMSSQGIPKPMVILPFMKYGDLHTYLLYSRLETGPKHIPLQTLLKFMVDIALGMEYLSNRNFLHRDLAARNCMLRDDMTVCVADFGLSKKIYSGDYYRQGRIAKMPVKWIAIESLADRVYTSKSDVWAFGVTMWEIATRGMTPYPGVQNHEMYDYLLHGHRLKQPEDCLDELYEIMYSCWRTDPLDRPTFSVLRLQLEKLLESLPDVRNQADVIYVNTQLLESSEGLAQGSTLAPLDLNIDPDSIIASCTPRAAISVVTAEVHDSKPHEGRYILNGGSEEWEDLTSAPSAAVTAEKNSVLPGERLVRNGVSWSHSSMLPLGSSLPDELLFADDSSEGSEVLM
# ASSAY REMARKS: LanthaScreen Eu kinase binding assay for Mer
# TEST PARAMETERS: read-out: Mer kinase binding activity (Kd)
PROPERTY: Kd

Look up Kd: `COc1cc2nccc(Oc3ccc(NC(=O)c4n[nH]cc4OCC(F)(F)F)nc3)c2cc1OC`
< 0.1 µM

Look up Kd: COc1cc2nccc(Oc3ccc(NC(=O)c4nn(C5CCN(C)C5)cc4OCC(F)(F)F)cc3C)c2cc1OC (stereo not drawn)
< 0.1 µM

Look up Kd: `COc1cc2nccc(Oc3ccc(NC(=O)c4nn(C5CC5)cc4NCCC(F)(F)F)nc3)c2cc1OC`
< 0.1 µM

Look up Kd: `CNCCOc1cn(C2CC2)nc1C(=O)Nc1ccc(Oc2ccnc3cc(OC)c(OC)cc23)cn1`
≥ 0.5 µM

Look up Kd: `CCCn1cc(OCC(F)(F)F)c(C(=O)Nc2ccc(Oc3ccnc4cc(OC)c(OC)cc34)c(C(F)(F)F)c2)n1`
< 0.1 µM

Look up Kd: `CCCn1cc(OCCF)c(C(=O)Nc2ccc(Oc3ccnc4cc(OC)c(OC)cc34)cn2)n1`
< 0.1 µM

Look up Kd: `COc1cc2nccc(Oc3ccc(NC(=O)c4nn(C[C@H](C)O)cc4OCC(F)(F)F)nc3)c2cc1OC`
< 0.1 µM

Look up Kd: `CCCn1cc(OCC2COC2)c(C(=O)Nc2ccc(Oc3ccnc4cc(OC)c(OC)cc34)cn2)n1`
< 0.1 µM

Look up Kd: `COc1cc2nccc(Oc3ccc(NC(=O)c4nn(CCOC5CC5)cc4OCC(F)(F)F)nn3)c2cc1OC`
< 0.1 µM

Look up Kd: COc1cc2nccc(Oc3ccc(NC(=O)c4nn(CC(C)O)cc4OCC(F)(F)F)cc3F)c2cc1OC (stereo not drawn)
< 0.1 µM

Look up Kd: COc1cc2nccc(Oc3ccc(NC(=O)c4nn(CC(C)O)cc4OCC4CCC4)nc3)c2cc1OC (stereo not drawn)
< 0.1 µM

Look up Kd: COc1cc2nccc(Oc3ccc(NC(=O)c4nn(C5CCN(C)C5)cc4OCC(F)(F)F)c(F)c3)c2cc1OC (stereo not drawn)
< 0.1 µM

Look up Kd: `COc1cc2nccc(Oc3ccc(NC(=O)c4nn(CC(C)C)cc4OCC(F)(F)F)cc3C)c2cc1OC`
< 0.1 µM

Look up Kd: `COc1cc2nccc(Oc3ccc(NC(=O)c4nn(C5CCCC5)cc4OCC(F)(F)F)cn3)c2cc1OC`
< 0.1 µM

Look up Kd: `COc1cc2nccc(Oc3ccc(NC(=O)c4nn(C5CC5)cc4OCC4COC4)nn3)c2cc1OC`
< 0.1 µM

Look up Kd: `COc1cc2nccc(Oc3ccc(NC(=O)c4nn(CC5CCCCC5)cc4OCC(F)(F)F)nc3)c2cc1OC`
< 0.1 µM

Look up Kd: COc1cc2nccc(Oc3ccc(NC(=O)c4nn(C5CCOC5)cc4OCC(F)(F)F)nc3)c2cc1OC (stereo not drawn)
< 0.1 µM

Look up Kd: `COCCOc1cn(C2CC2)nc1C(=O)Nc1ccc(Oc2ccnc3cc(OC)c(OC)cc23)nn1`
0.1 to 0.5 µM

Look up Kd: `COc1cc2nccc(Oc3ccc(NC(=O)c4nn(CCO)cc4OCC(F)(F)F)cn3)c2cc1OC`
0.1 to 0.5 µM

Look up Kd: COc1cc2nccc(Oc3ccc(NC(=O)c4nn(C5CCN(C)C5)cc4OCC(F)(F)F)cc3F)c2cc1OC (stereo not drawn)
< 0.1 µM

Look up Kd: `COc1cc2nccc(Oc3ccc(NC(=O)c4nn(C5CC5)cc4OCC4CCC4)nc3)c2cc1OC`
< 0.1 µM

Look up Kd: `CCCn1cc(OCC(F)(F)F)c(C(=O)Nc2ccc(Oc3ccnc4cc(OC)c(OC)cc34)c(F)c2)n1`
< 0.1 µM

Look up Kd: COc1cc2nccc(Oc3ccc(NC(=O)c4nn(C5CCN(C)C5)cc4OCC(F)(F)F)cc3)c2cc1OC (stereo not drawn)
< 0.1 µM

Look up Kd: `CCCn1cc(OCCN(C)C)c(C(=O)Nc2ccc(Oc3ccnc4cc(OC)c(OC)cc34)cn2)n1`
0.1 to 0.5 µM

Look up Kd: `COc1cc2nccc(Oc3ccc(NC(=O)c4nn(CCOC5CC5)cc4OCC(F)(F)F)cn3)c2cc1OC`
< 0.1 µM

Look up Kd: COc1cc2nccc(Oc3ccc(NC(=O)c4nn(C5CCNC5)cc4OCC(F)(F)F)cc3F)c2cc1OC (stereo not drawn)
0.1 to 0.5 µM

Look up Kd: `COc1cc2nccc(Oc3ccc(NC(=O)c4nn(C5CCCC5)cc4OCC(F)(F)F)nn3)c2cc1OC`
< 0.1 µM

Look up Kd: COc1cc2nccc(Oc3ccc(NC(=O)c4nn(CC(C)O)cc4OCC(F)(F)F)cn3)c2cc1OC (stereo not drawn)
< 0.1 µM

Look up Kd: `COc1cc2nccc(Oc3ccc(NC(=O)c4nn(C5CC5)c(C(C)=O)c4OCC(F)(F)F)nc3)c2cc1OC`
< 0.1 µM

Look up Kd: COc1cc2nccc(Oc3ccc(NC(=O)c4nn(C5CCN(C)C5)cc4OCC(F)(F)F)cn3)c2cc1OC (stereo not drawn)
0.1 to 0.5 µM
